assay.summary: mitochondrial membrane potential change in A549 cells, profiling panel, cell-based, JC-1 fluorescence, basal, 24 h, 100 nL (AID 1138);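 further: A549 lung adenocarcinoma cells under basal conditions with no added stimulus; test concentration not given here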
condition.info: higher = more signal
Some compounds, each annotated with its measured z-score.
Answer using only a numeral; do not append any unit.

Consider the compound `CCOC(=O)C[C@H]1[C@H](OC(=O)c2ccccc2-c2ccccc2)[C@@H](NC(=O)C2CCCCC2)c2cc(OCCCO)ccc2N1C(=O)c1ccccc1` and give its measured z-score. 1.33

Consider the compound `O=C(CS)NCCCCCCNC(=O)[C@@H]1C[C@@H]2C(=O)N[C@@H](Cc3ccccc3)C(=O)N2[C@@H]1c1ccc(O)cc1` and give its measured z-score. -1.39

Consider the compound `O=C1O[C@@H](c2ccccc2)[C@@H](c2ccccc2)N2[C@@H](c3ccccc3OCCO)[C@]3(C(=O)Nc4ccc(C#CC5=CCCCC5)cc43)[C@@H](C(=O)O)[C@H]12` and give its measured z-score. -2.32

Consider the compound `CO[C@H]1COC(=O)[C@H](Cc2ccccc2)NC(=O)CC=C[C@@H](C)[C@H](OC)COC(=O)CC=C[C@@H]1C` and give its measured z-score. 1.64

Consider the compound `Cc1ccc(S[C@]2(C(=O)NCCCN(C)C)CC(=O)N(C3CCCCC3)[C@@H]2c2ccc(CO)cc2I)cc1` and give its measured z-score. 3.41

Consider the compound `CCCC=C(CCC)[C@@H](NC(=O)c1ccc(C(F)(F)F)cc1)c1ccccc1` and give its measured z-score. -2.54

Consider the compound `Cc1ccc(N2C(=O)c3ccccc3[C@@H](C(=O)NCC(F)(F)F)[C@@H]2c2ccc(CO)cc2)nc1` and give its measured z-score. -0.913

Next:
Consider the compound `CC(C)C[C@@H]1NC(=O)[C@H]2C[C@@H](C(=O)NCCCCCC[N+](C)(C)C)[C@@H](c3ccc(O)cc3)N2C1=O` and give its measured z-score. -0.603
